Exercise: for every item that follows, state its recorded melting point.

Check out these entries, answers already filled in.
molecule: COc1ccc(C)cc1NC(=O)Nc1ccc(N2CCN(C(=O)Nc3ccc(CCO)cc3C)CC2)cc1
recorded value: 119 to 121 °C

molecule: CCCCCCCCCOc1cc(C(N)=O)ccn1
recorded value: 108 to 110 °C

molecule: Cc1ccccc1CN1CCC(n2c(C)c(-c3ccccc3)[nH]c2=O)CC1
recorded value: 218 to 220 °C

For each of the items listed, what is its melting point?
1. CCOC(=O)c1sc(SC)c2c1CCc1nc(C)oc1-2
2. COC(=O)C1CCC(OC2=C3N=c4ccccc4=C3C(Cc3ccc(F)cc3)C=C2)O1 (centres undefined)
3. C[C@@H]1N=C(c2ccccc2Cl)c2cc([N+](=O)[O-])ccc2NC1=O

output:
["131 to 132 °C", "85 to 86 °C", "200 to 202 °C"]
